assayed_target: human estrogen receptor (hERα) (Homo sapiens, UniProt P03372)
Construct: expressed in transfected cells; host or cells: recombinant yeast strain (provided by Wagner and Oehlmann, Frankfurt; by permission of Routledge and Sumpter)
Sequence (P03372 whole entry): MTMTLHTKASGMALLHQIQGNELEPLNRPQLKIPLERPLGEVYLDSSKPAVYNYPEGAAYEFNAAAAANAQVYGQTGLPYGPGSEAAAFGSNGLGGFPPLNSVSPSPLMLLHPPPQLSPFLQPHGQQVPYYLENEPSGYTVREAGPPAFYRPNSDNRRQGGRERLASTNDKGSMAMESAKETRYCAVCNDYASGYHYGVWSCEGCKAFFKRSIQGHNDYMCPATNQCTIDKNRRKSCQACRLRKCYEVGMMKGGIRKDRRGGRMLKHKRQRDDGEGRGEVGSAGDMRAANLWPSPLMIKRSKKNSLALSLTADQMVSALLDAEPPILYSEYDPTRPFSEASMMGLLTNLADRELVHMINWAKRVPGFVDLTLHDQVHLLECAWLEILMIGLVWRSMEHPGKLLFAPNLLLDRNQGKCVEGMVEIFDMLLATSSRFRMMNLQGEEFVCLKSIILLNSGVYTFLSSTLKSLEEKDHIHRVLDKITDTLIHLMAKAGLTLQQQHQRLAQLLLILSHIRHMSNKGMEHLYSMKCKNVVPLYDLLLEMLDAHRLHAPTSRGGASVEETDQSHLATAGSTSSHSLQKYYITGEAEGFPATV
measurement_protocol: Yeast estrogen screen (YES)
Format: cell-based
measurement_type: EC50

Given item `CC(C)(c1ccccc1)c1ccc(O)c(C(C)(C)c2ccccc2)c1` , the value recorded as its EC50 is > 300 µM

----------
assayed_target: human estrogen receptor (hERα) (Homo sapiens, UniProt P03372)
Construct: expressed in transfected cells; host or cells: recombinant yeast strain (provided by Wagner and Oehlmann, Frankfurt; by permission of Routledge and Sumpter)
measurement_protocol: Yeast estrogen screen (YES)
Format: cell-based
test_conditions: antagonist mode, spiked with 80 pmol/l 17β-estradiol; footnote b: inhibition of yeast growth at higher concentrations; read-out: YES Antiestrogen activity EC50
measurement_type: EC50

CCCCC(CC)COC(=O)CCCCC(=O)OCC(CC)CCCC (stereo not drawn) [diethylhexyladipate (DEHA), diethylhexyladipate] : > 1000 µM
CC(C)(C)c1ccc(O)c(C(C)(C)C)c1 : > 10 µM

Considering `c1ccc(CCCc2ccccc2)cc1` , its EC50 with human estrogen receptor (hERα) (Homo sapiens, UniProt P03372) was recorded as > 1000 µM
